src = ChEMBL document CHEMBL1140081

# measurement description: AUC in Sprague-Dawley rat at 100 mg/kg, po using 1% methyl cellulose as vehicle
# Type: ADME, organism-based
# Design: dose 100 mg/kg, route oral
# condition context: in vivo
outcome measure: AUC (µM·h)
Express the result in µM·h but write the number alone.

Per the records, this compound ( `CN(C)C(=O)C(=O)NC(C)(C)c1nc(C(=O)NCc2ccc(F)cc2)c(O)c(=O)n1C` ) has AUC equal to 23

* * *

Each entry below carries its reported Activity.
# System: Human immunodeficiency virus 1
# measurement description: Antiviral activity against HIV1 with integrase T66I/M154 mutation by single cycle infectivity assay in presence of 10%FBS
# Type: functional

Consider the worked cases shown below.
O=C(/C=C(\O)c1nc[nH]n1)c1ccc(Cc2ccc(F)cc2)o1	20%
Cc1nnc(C(=O)NC(C)(C)c2nc(C(=O)NCc3ccc(F)cc3)c(O)c(=O)n2C)o1	1%
CN(C)C(=O)C(=O)NC(C)(C)c1nc(C(=O)NCc2ccc(F)cc2)c(O)c(=O)n1C	5%

Field: next compound
Kindly note: Human immunodeficiency virus 1, `O=C(NCc1ccc(F)cc1)c1nc(N2CCCCS2(=O)=O)c2cccnc2c1O` , Activity value reported: 3%

* * *

# measurement description: Cmax in po dosed Sprague-Dawley rat
# Assay type: ADME, organism-based
# Design: route oral
# condition context: in vivo
Examples of compounds with documented Cmax follow.
# value in nM; strip the unit string

Cc1nnc(C(=O)NC(C)(C)c2nc(C(=O)NCc3ccc(F)cc3)c([O-])c(=O)n2C)o1.[Na+]	1000

Entry `Cc1nnc(C(=O)NC(C)(C)c2nc(C(=O)NCc3ccc(F)cc3)c([O-])c(=O)n2C)o1.[K+]` ; Cmax = 1600

* * *

# measurement description: Volume of distribution in rhesus monkey at 1 mg/kg, iv
# condition context: in vivo
Examples of molecules with documented Vd follow.
Answer in L/kg, number only, no unit symbol.

CN(C)C(=O)C(=O)NC(C)(C)c1nc(C(=O)NCc2ccc(F)cc2)c(O)c(=O)n1C	2.9

Here's the next entry for you.
For this molecule ( `Cc1nnc(C(=O)NC(C)(C)c2nc(C(=O)NCc3ccc(F)cc3)c(O)c(=O)n2C)o1` ), measured Vd is 1.2

* * *

# measurement description: AUC in Sprague-Dawley rat at 100 mg/kg, po using PEG400 as vehicle
# Type: ADME, organism-based
# Design: dose 100 mg/kg, route oral
# condition context: plasma
outcome measure: AUC (µM·h)
API: value field is a number in µM·h; no unit string.

Short answer for `CN(C)C(=O)C(=O)NC(C)(C)c1nc(C(=O)NCc2ccc(F)cc2)c(O)c(=O)n1C` : AUC was 49

* * *

# measurement description: Volume of distribution in dog at 5 mg/kg, iv
# Assay type: ADME, organism-based, Canis lupus familiaris
# Parameters: dose 5 mg/kg, route intravenous
# condition context: in vivo
outcome measure: Vd (L/kg)
# unit: L/kg | format: bare number

The reported value for `CN(C)C(=O)C(=O)NC(C)(C)c1nc(C(=O)NCc2ccc(F)cc2)c(O)c(=O)n1C` in terms of Vd is 1.1

* * *

# tested system: DNA polymerase beta (Homo sapiens)
outcome measure: IC50

Cc1nnc(C(=O)NC(C)(C)c2nc(C(=O)NCc3ccc(F)cc3)c(O)c(=O)n2C)o1	> 50 µM

Recorded IC50 for `CN(C)C(=O)C(=O)NC(C)(C)c1nc(C(=O)NCc2ccc(F)cc2)c(O)c(=O)n1C` on DNA polymerase beta (Homo sapiens) was > 50 µM
